The reported measurements were obtained from patent US10221163B2.

target: NDM-1 (Klebsiella pneumoniae); assay: biochemical; type: biochemical; conditions: fluorescence assay, CCF2-FA substrate, 1 pM enzyme, 2 hours at 25° C.; read-out: NDM-1 IC50
Sequence (C7C422 whole entry, looked up, species assumed): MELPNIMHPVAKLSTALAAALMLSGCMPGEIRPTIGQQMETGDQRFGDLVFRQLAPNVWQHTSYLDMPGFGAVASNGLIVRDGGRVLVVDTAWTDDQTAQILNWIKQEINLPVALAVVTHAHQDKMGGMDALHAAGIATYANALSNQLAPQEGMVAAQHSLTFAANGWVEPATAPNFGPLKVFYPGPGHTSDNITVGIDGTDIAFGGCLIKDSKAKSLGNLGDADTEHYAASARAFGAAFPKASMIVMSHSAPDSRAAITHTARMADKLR
Task for the reader: assign each of the following molecules its reported pIC50.
Interpret pIC50 as the negative base-10 log of the concentration measured in mol/L.

Entry `NCc1nc2c(-c3ccc(S(=O)(=O)NC(CN)CN)c(S(N)(=O)=O)c3-c3nn[nH]n3)cccc2[nH]1` ; pIC50 = 9.95

Entry `NCCNS(=O)(=O)c1ccc(-c2cccc(SC[C@@H](O)CN)c2)c(-c2nn[nH]n2)c1S(N)(=O)=O` ; pIC50 = 8.90

Entry CN(C1CCS(=O)(=O)C1)S(=O)(=O)c1ccc(-c2cccc3sc(N)nc23)c(-c2nnn[nH]2)c1S(N)(=O)=O (stereo not shown) ; pIC50 = 9.03

Entry `NCC(CN)NS(=O)(=O)c1ccc(-c2ccc3nccn3c2)c(-c2nn[nH]n2)c1S(N)(=O)=O` ; pIC50 = 9.78

Entry `NCCNS(=O)(=O)c1ccc(-c2cccc3c2CCCN3)c(-c2nn[nH]n2)c1S(N)(=O)=O` ; pIC50 = 9.67

Entry `COCCNCCNS(=O)(=O)c1ccc(-c2cccc3sc(N)nc23)c(-c2nnn[nH]2)c1S(N)(=O)=O` ; pIC50 = 10.45

Entry `Nc1ccc(-c2ccc(S(=O)(=O)NC[C@@H]3CCNC3)c(S(N)(=O)=O)c2-c2nn[nH]n2)cn1` ; pIC50 = 10.03

Entry `Nc1nc2c(-c3ccc(S(=O)(=O)NCCN4CCC4)c(S(N)(=O)=O)c3-c3nnn[nH]3)cccc2s1` ; pIC50 = 10.19

Entry Nc1nc2c(-c3ccc(S(=O)(=O)N4CC5CC4CS5(=O)=O)c(S(N)(=O)=O)c3-c3nnn[nH]3)cccc2s1 (stereo not shown) ; pIC50 = 8.77

Entry `CN(C)CC(F)(F)CNS(=O)(=O)c1ccc(-c2cccc3sc(N)nc23)c(-c2nnn[nH]2)c1S(N)(=O)=O` ; pIC50 = 10.04

Entry `NCCNS(=O)(=O)c1ccc(-c2ccnc(CN)c2)c(-c2nn[nH]n2)c1S(N)(=O)=O` ; pIC50 = 7.38

Entry `NS(=O)(=O)c1c(S(=O)(=O)N[C@@H]2CCNC2)ccc(-c2cccc3nc(O)[nH]c23)c1-c1nnn[nH]1` ; pIC50 = 10.28

Entry `NC[C@H](O)CNS(=O)(=O)c1ccc(-c2ccc(N)nc2)c(-c2nn[nH]n2)c1S(N)(=O)=O` ; pIC50 = 9.70

Entry Nc1nc2c(-c3ccc(S(=O)(=O)NCCC(N)C(F)(F)F)c(S(N)(=O)=O)c3-c3nnn[nH]3)cccc2s1 (stereo not shown) ; pIC50 = 10.17

Entry `NCc1nc2c(-c3ccc(S(=O)(=O)N[C@@H](CN)CO)c(S(N)(=O)=O)c3-c3nn[nH]n3)cccc2[nH]1` ; pIC50 = 10.02

Entry `Nc1nc2c(-c3ccc(S(=O)(=O)N4CCC(F)(F)C4)c(S(N)(=O)=O)c3-c3nnn[nH]3)cccc2s1` ; pIC50 = 8.68

Entry NCCNS(=O)(=O)c1ccc(-c2cccc(C(=O)NCC(O)CN)c2)c(-c2nn[nH]n2)c1S(N)(=O)=O (stereo in doubt) ; pIC50 = 8.69

Entry `Nc1cccc(-c2ccc(S(=O)(=O)N[C@@H]3CCNC3)c(S(N)(=O)=O)c2-c2nn[nH]n2)n1` ; pIC50 = 9.83

Entry `NCCNS(=O)(=O)c1ccc(-c2cccc(-c3nc[nH]n3)c2)c(-c2nn[nH]n2)c1S(N)(=O)=O` ; pIC50 = 9.85

Entry `NCCNS(=O)(=O)c1ccc(-c2cccc(NC[C@@H](O)CN)c2)c(-c2nn[nH]n2)c1S(N)(=O)=O` ; pIC50 = 8.85

Entry `Nc1nc2c(-c3ccc(S(=O)(=O)N[C@H]4CCCNC4)c(S(N)(=O)=O)c3-c3nnn[nH]3)cccc2s1` ; pIC50 = 10.39

Entry `Nc1nc2c(-c3ccc(S(=O)(=O)N[C@H]4CNC[C@@H]4O)c(S(N)(=O)=O)c3-c3nnn[nH]3)cccc2[nH]1` ; pIC50 = 9.86

Entry `NS(=O)(=O)c1c(S(=O)(=O)N2CCNCC2)ccc(-c2cccc3cn[nH]c23)c1-c1nnn[nH]1` ; pIC50 = 9.22

Entry `NCCn1nnc2c(-c3ccc(S(=O)(=O)N[C@@H]4CCNC4)c(S(N)(=O)=O)c3-c3nn[nH]n3)cccc21` ; pIC50 = 9.60

Entry `NC[C@@H](O)CNS(=O)(=O)c1ccc(-c2cccc3[nH]cnc23)c(-c2nn[nH]n2)c1S(N)(=O)=O` ; pIC50 = 10.79

Entry `NS(=O)(=O)c1c(S(=O)(=O)N[C@@H]2CCNC2)ccc(-c2cccc3c2OC(F)(F)O3)c1-c1nnn[nH]1` ; pIC50 = 9.56

Entry `Nc1nc2c(-c3ccc(S(=O)(=O)N4CC(F)(F)C4)c(S(N)(=O)=O)c3-c3nnn[nH]3)cccc2s1` ; pIC50 = 9.16

Entry Nc1nc2c(-c3ccc(S(=O)(=O)NC[C@H]4CCCN4)c(S(N)(=O)=O)c3-c3nnn[nH]3)cccc2s1.O=CO [Example 126, formate] ; pIC50 = 10.25
